Source listed as ChEMBL document CHEMBL3603811.

measured-target: 17-beta-hydroxysteroid dehydrogenase type 3 (Rattus norvegicus) (UniProt O54939)
Sequence (O54939 whole entry): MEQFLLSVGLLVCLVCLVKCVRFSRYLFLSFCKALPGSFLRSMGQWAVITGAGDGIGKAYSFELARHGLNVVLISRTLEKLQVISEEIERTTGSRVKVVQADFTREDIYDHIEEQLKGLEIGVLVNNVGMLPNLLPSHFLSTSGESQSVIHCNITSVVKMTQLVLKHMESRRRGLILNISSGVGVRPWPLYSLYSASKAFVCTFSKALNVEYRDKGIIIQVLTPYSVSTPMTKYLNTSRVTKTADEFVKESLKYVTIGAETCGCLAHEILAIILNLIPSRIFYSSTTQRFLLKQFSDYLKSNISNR
assay-overview: Inhibition of 17beta-HSD3 in rat testes microsomes using [14C]-4-androstene-3,17-dione as substrate measured based on 18% of initial enzyme transformation at 0.01 uM after 2 hrs
experimental-parameters: Testis
Assign Yes to entries whose inhibition meets or exceeds 20%; assign No to the rest.

Q: Record C[C@]12CC[C@@]3(C[C@@H]1CC[C@@H]1[C@@H]2CC[C@]2(C)C(=O)CC[C@@H]12)CN(Cc1ccccc1C(F)(F)F)CC(=O)O3 ; criterion: inhibition no lower than 20%. Met?
A: Yes

Q: Record C[C@]12CC[C@@]3(C[C@@H]1CC[C@@H]1[C@@H]2CC[C@]2(C)C(=O)CC[C@@H]12)CN(Cc1ccc(-c2cccc(C(F)(F)F)c2)cc1)CC(=O)O3 ; criterion: inhibition no lower than 20%. Met?
A: Yes

Q: Record C[C@]12CC[C@@]3(C[C@@H]1CC[C@@H]1[C@@H]2CC[C@]2(C)C(=O)CC[C@@H]12)CN(Cc1ccc2ccccc2c1)CC(=O)O3 ; criterion: inhibition no lower than 20%. Met?
A: No

Q: Record C[C@@H]1CN(S(=O)(=O)c2ccccc2C(F)(F)F)[C@@H](C)CN1C[C@@]1(O)CC[C@@]2(C)[C@@H](CC[C@@H]3[C@@H]2CC[C@]2(C)C(=O)CC[C@@H]32)C1 ; criterion: inhibition no lower than 20%. Met?
A: Yes

Q: Record C[C@]12CC[C@@]3(C[C@@H]1CC[C@@H]1[C@@H]2CC[C@]2(C)C(=O)CC[C@@H]12)CN(Cc1cccc(C(F)(F)F)c1)CC(=O)O3 ; criterion: inhibition no lower than 20%. Met?
A: No

Q: Record C#CCN1CC(=O)O[C@@]2(CC[C@@]3(C)[C@@H](CC[C@@H]4[C@@H]3CC[C@]3(C)C(=O)CC[C@@H]43)C2)C1 ; criterion: inhibition no lower than 20%. Met?
A: No

====

measured-target: 17-beta-hydroxysteroid dehydrogenase type 3 (Rattus norvegicus)
assay-overview: Inhibition of 17beta-HSD3 in rat testes microsomes using [14C]-4-androstene-3,17-dione as substrate measured based on 18% of initial enzyme transformation at 0.01 uM after 2 hrs
experimental-parameters: Testis
assay-metric: inhibition (%)
Numeric answer only, unit % assumed.

Q: Tell me inhibition reported for C=CCN1CC(=O)O[C@@]2(CC[C@@]3(C)[C@@H](CC[C@@H]4[C@@H]3CC[C@]3(C)C(=O)CC[C@@H]43)C2)C1
A: 8.4

Q: Tell me inhibition reported for C#CCN1CC2(CCCCC2)OC(=O)[C@@H]1Cc1ccccc1
A: 0

Q: Tell me inhibition reported for C[C@]12CC[C@@]3(C[C@@H]1CC[C@@H]1[C@@H]2CC[C@]2(C)C(=O)CC[C@@H]12)CN(Cc1ccc(I)cc1)CC(=O)O3
A: 12.2

Q: Tell me inhibition reported for C[C@]12CC[C@@]3(C[C@@H]1CC[C@@H]1[C@@H]2CC[C@]2(C)C(=O)CC[C@@H]12)CN(Cc1ccccc1)CC(=O)O3
A: 27.2

====

measured-target: 17-beta-hydroxysteroid dehydrogenase type 3 (Rattus norvegicus)
assay-overview: Inhibition of 17beta-HSD3 in rat testes microsomes using [14C]-4-androstene-3,17-dione as substrate measured based on 33% of initial enzyme transformation at 1 uM after 2 hrs
experimental-parameters: Testis
assay-metric: inhibition (%)
Numeric answer only, unit % assumed.

Q: Tell me inhibition reported for C[C@]12CC[C@@]3(C[C@@H]1CC[C@@H]1[C@@H]2CC[C@]2(C)C(=O)CC[C@@H]12)CN(Cc1ccc(OC(F)(F)F)cc1)CC(=O)O3
A: 93.8

Q: Tell me inhibition reported for C[C@]12CC[C@@]3(C[C@@H]1CC[C@@H]1[C@@H]2CC[C@]2(C)C(=O)CC[C@@H]12)CN(CCCc1ccccc1)CC(=O)O3
A: 90.5

Q: Tell me inhibition reported for C[C@]12CC[C@@]3(C[C@@H]1CC[C@@H]1[C@@H]2CC[C@]2(C)C(=O)CC[C@@H]12)CN(CCc1ccccc1)CC(=O)O3
A: 92.2

Q: Tell me inhibition reported for C[C@]12CC[C@@]3(C[C@@H]1CC[C@@H]1[C@@H]2CC[C@]2(C)C(=O)CC[C@@H]12)CN(Cc1ccc(Br)cc1)CC(=O)O3
A: 92.9

Q: Tell me inhibition reported for C[C@]12CC[C@@]3(C[C@@H]1CC[C@@H]1[C@@H]2CC[C@]2(C)C(=O)CC[C@@H]12)CN(Cc1ccc(-c2ccccc2)cc1)CC(=O)O3
A: 93.1

Q: Tell me inhibition reported for C[C@]12CC[C@@]3(C[C@@H]1CC[C@@H]1[C@@H]2CC[C@]2(C)C(=O)CC[C@@H]12)CN(CCCCc1ccccc1)CC(=O)O3
A: 91.1

Q: Tell me inhibition reported for C[C@@H]1CN(S(=O)(=O)c2ccccc2C(F)(F)F)[C@@H](C)CN1C[C@@]1(O)CC[C@@]2(C)[C@@H](CC[C@@H]3[C@@H]2CC[C@]2(C)C(=O)CC[C@@H]32)C1
A: 94.4

Q: Tell me inhibition reported for C[C@]12CC[C@@]3(C[C@@H]1CC[C@@H]1[C@@H]2CC[C@]2(C)C(=O)CC[C@@H]12)CN(Cc1ccccc1)CC(=O)O3
A: 91.6

Q: Tell me inhibition reported for C[C@]12CC[C@@]3(C[C@@H]1CC[C@@H]1[C@@H]2CC[C@]2(C)C(=O)CC[C@@H]12)CN(CCc1ccc(C(F)(F)F)cc1)CC(=O)O3
A: 92.1

Q: Tell me inhibition reported for C[C@]12CC[C@@]3(C[C@@H]1CC[C@@H]1[C@@H]2CC[C@]2(C)C(=O)CC[C@@H]12)CN(Cc1ccc(OCc2ccccc2)cc1)CC(=O)O3
A: 90.8

Q: Tell me inhibition reported for C[C@]12CC[C@@]3(C[C@@H]1CC[C@@H]1[C@@H]2CC[C@]2(C)C(=O)CC[C@@H]12)CN(Cc1ccc(C(F)(F)F)cc1)CC(=O)O3
A: 94
